# protocol notes: Oral bioavailability in rat
# Assay type: ADME, organism-based
# measurement context: in vivo
Reported bioavailability values follow for various compounds
Quick reminder: number only, in %, skip the unit.

Below: 3 compounds and their reported bioavailability.
- structure as smiles: "c1ccc([C@@H]([C@H](c2ccccc2)N2CCCC2)N2CCCC2)cc1"
  measurement units: "%"
  bioavailability: 48.9
- structure as smiles: "c1ccc([C@H]([C@@H](c2ccccc2)N2CCCCC2)N2CCCCC2)cc1"
  measurement units: "%"
  bioavailability: 103
- structure as smiles: "c1ccc([C@@H]([C@H](c2ccccc2)N2CCCCC2)N2CCCCC2)cc1"
  measurement units: "%"
  bioavailability: 26.6

// sample c1ccc([C@H]([C@@H](c2ccccc2)N2CCCC2)N2CCCC2)cc1 , its bioavailability was 15.6

* * *

# assay system: Potassium voltage-gated channel subfamily A member 5 (Homo sapiens, UniProt P22460)
# Sequence (P22460 whole entry): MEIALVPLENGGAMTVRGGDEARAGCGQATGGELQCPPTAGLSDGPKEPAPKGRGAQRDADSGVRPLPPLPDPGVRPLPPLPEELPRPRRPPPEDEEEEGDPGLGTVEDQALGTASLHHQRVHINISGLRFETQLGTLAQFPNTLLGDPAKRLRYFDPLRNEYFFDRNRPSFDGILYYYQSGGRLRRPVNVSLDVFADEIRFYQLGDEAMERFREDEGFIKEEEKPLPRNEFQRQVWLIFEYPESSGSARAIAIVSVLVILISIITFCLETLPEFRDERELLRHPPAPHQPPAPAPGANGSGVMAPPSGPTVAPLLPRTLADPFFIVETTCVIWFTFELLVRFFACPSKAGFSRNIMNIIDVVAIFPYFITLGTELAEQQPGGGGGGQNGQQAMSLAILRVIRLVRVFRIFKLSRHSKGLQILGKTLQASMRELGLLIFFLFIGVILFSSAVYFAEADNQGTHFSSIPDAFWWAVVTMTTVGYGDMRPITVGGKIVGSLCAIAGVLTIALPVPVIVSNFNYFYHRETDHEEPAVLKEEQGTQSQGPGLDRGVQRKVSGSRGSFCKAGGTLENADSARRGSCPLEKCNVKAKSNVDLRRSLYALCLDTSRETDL
# protocol notes: Inhibition of human Kv1.5 ion channel after 3 mins by high-throughput planar patch clamp assay
measured parameter: IC50 (nM)
A number alone suffices; assume nM.

- structure as smiles: "c1ccc([C@H]([C@@H](c2ccccc2)N2CCCC2)N2CCCC2)cc1"
  measurement units: "nM"
  IC50: 600
- structure as smiles: "c1ccc([C@H]([C@@H](c2ccccc2)N2CCCCC2)N2CCCCC2)cc1"
  measurement units: "nM"
  IC50: 200
- structure as smiles: "c1ccc([C@@H]([C@H](c2ccccc2)N2CCCCC2)N2CCCCC2)cc1"
  measurement units: "nM"
  IC50: 200

Looking up c1ccc([C@@H]([C@H](c2ccccc2)N2CCCC2)N2CCCC2)cc1 , I found its IC50 recorded as 300

* * *

Catalogue of compounds with associated IC50
# assay system: Voltage-gated inwardly rectifying potassium channel KCNH2 (Homo sapiens, UniProt Q12809)
# Sequence (Q12809 whole entry): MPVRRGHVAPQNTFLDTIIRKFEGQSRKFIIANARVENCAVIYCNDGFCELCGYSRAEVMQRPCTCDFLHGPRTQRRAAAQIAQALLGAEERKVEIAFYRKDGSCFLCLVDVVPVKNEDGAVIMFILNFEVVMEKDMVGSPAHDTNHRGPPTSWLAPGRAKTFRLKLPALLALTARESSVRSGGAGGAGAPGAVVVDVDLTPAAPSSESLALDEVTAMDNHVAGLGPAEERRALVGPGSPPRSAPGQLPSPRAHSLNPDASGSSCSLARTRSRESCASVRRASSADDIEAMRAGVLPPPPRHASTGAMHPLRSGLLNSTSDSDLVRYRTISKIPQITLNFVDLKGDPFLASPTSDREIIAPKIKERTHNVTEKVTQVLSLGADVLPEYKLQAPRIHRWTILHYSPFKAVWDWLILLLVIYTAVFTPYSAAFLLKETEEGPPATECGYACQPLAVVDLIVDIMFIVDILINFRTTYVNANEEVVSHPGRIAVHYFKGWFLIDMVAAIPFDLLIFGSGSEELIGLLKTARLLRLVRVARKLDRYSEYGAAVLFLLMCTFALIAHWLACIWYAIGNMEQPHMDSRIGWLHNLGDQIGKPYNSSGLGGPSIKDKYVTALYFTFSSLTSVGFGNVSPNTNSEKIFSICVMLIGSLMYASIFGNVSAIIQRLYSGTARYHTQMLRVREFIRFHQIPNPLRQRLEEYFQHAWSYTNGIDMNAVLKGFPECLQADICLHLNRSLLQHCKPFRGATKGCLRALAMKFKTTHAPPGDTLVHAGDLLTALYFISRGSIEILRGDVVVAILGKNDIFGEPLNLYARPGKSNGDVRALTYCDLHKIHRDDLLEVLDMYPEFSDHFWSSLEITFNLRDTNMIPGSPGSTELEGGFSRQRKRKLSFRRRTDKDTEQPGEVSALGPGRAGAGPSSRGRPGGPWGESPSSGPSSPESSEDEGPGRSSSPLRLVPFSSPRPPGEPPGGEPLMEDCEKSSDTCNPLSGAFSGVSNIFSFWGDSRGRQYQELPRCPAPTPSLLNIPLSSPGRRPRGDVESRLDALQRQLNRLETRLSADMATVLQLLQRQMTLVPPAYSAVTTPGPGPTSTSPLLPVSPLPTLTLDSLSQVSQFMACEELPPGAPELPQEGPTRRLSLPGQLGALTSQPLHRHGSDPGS
# protocol notes: Inhibition of human ERG expressed in CHOK1 cells
# Format: cell-based, CHO-K1
Please answer using a numeric value trailed by its unit.

Observed IC50, Voltage-gated inwardly rectifying potassium channel KCNH2 (Homo sapiens, UniProt Q12809), c1ccc([C@H]([C@@H](c2ccccc2)N2CCCCC2)N2CCCCC2)cc1 : 25.1 µM

Reported IC50 (Voltage-gated inwardly rectifying potassium channel KCNH2 (Homo sapiens, UniProt Q12809)) for entry c1ccc([C@@H]([C@H](c2ccccc2)N2CCCCC2)N2CCCCC2)cc1 is 31.6 µM

Record for c1ccc([C@H]([C@@H](c2ccccc2)N2CCCC2)N2CCCC2)cc1 under target or system Voltage-gated inwardly rectifying potassium channel KCNH2 (Homo sapiens, UniProt Q12809): IC50 reported as 31.6 µM

Entry c1ccc([C@@H]([C@H](c2ccccc2)N2CCCC2)N2CCCC2)cc1 under Voltage-gated inwardly rectifying potassium channel KCNH2 (Homo sapiens, UniProt Q12809) had IC50 of 31.6 µM
